Reference source for all entries: ChEMBL document CHEMBL1201862

Each entry below carries its reported GI50.
- Test system: A498
- PROTOCOL_NOTES: NCI tumour cell line growth inhibition, 48 h
Active and inactive are the calls of the source. Rule as the data show it: active = GI50 up to about 1.1 µM and inactive = higher.

Below, 5 molecules whose answers are already recorded.
MOLECULE | SYSTEM_UNDER_TEST | VALUE_REPORTED
CN(C)c1ccc(/C=c2/c3ccccc3n3c2cc(NC(=O)NCCC[N+](C)(C)C)[n+]3C)cc1 | A498 | > 100 µM (inactive)
Cc1cc2c(c(=O)n1C)SCC2 | A498 | > 100 µM (inactive)
CC(C)N1CCN(c2ccc(OCC3COC(Cn4cncn4)(c4ccc(Cl)cc4Cl)O3)cc2)CC1 (centres undefined) | A498 | 14 µM (inactive)
COC(=O)C1C(O)C(C)C(O)C(C)(O)C=C(C)C2=C3C(=C(C)C(=O)c4c(O)c(c(C)c(OC(C)=O)c43)NC(=O)C(C)=C/C=C\C(C)(O)C(O)C(C)C1O)OCO2 (centres undefined) | A498 | > 100 µM (inactive)
N#Cc1c(N)nc(S)c(C#N)c1-c1ccccc1 | A498 | > 100 µM (inactive)

For the molecule CN(C)C1C(CO)OC(n2cnc3c(N)ncnc32)C1O (centres undefined) , what GI50 is on record? > 100 µM (inactive)

For the molecule COc1ccc(C(=O)/C=C/c2ccc(OCC(=O)O)cc2)cc1 , what GI50 is on record? > 100 µM (inactive)

For the molecule CN(C)CCC(/C=C/c1ccccc1)=N\Nc1ccc(Cl)c(Cl)c1 , what GI50 is on record? 4.63 µM (inactive)

For the molecule COC(=O)Cc1c(/C=C/C(C)(C)n2cnc(CCN3C(=O)CCC3=O)c2)[nH]c2ccccc12 , what GI50 is on record? > 100 µM (inactive)

====

- System: CCRF-CEM
- PROTOCOL_NOTES: NCI tumour cell line growth inhibition, 48 h
Calls of active or inactive are those of the source. Rule as the data show it: active = GI50 up to about 1.1 µM and inactive = higher.
Entry note: the call must match one of 1 (active), 0 (inactive)

Reference set, count: 5
COMPOUND | SYSTEM_UNDER_TEST | QUALITATIVE_LABEL
CCc1cccc(C)c1NC(=O)CCc1n[nH]c(=S)o1 | CCRF-CEM | 0
O=C(CSc1nnc(Cc2ccccc2)o1)Nc1ccc(Cl)cc1Cl | CCRF-CEM | 0
COc1cc(C(=O)N(C(=S)OCc2ccccn2)c2ccccc2)cc(OC)c1OC | CCRF-CEM | 0
CSC1=NC(=O)CCN1C1OCC(OC(C)=O)C(OC(C)=O)C1OC(C)=O (stereo not drawn) | CCRF-CEM | 0
NC(CCCCNCc1ccccc1O)C(=O)O (stereo not drawn) | CCRF-CEM | 0

Which outcome was entered for the compound CSc1nc(C)cc(N(C)c2ccccc2)n1 in this test? 0

Which outcome was entered for the compound COc1ccc(-c2oc3c(OC)c(OC)cc(O)c3c(=O)c2OC)cc1 in this test? 0

Which outcome was entered for the compound NC(=O)c1csc(C2C=CC(CO)O2)n1 (stereo not drawn) in this test? 0

Which outcome was entered for the compound CN(C)c1ccc(/C=c2/c3ccccc3n3c2cc(NC(=O)NCCC[N+](C)(C)C)[n+]3C)cc1 in this test? 1

Which outcome was entered for the compound O=C1c2ccccc2-c2nnc3c(c21)-c1ccccc1C3 in this test? 0

Which outcome was entered for the compound COc1cc2cccc(/N=C\c3ccccc3Cl)c2cc1OC in this test? 0

Which outcome was entered for the compound O=c1cc(NNc2ccccc2)[nH]c(=S)[nH]1 in this test? 0

Which outcome was entered for the compound CCOC1OC(=O)c2cc3ccc4c(c3c(-c3ccc5c(c3)OCO5)c21)OCO4 (stereo not drawn) in this test? 0

Which outcome was entered for the compound COC(=O)C(=O)C(CC(=O)Nc1c(C)cccc1C)C(=O)OC (stereo not drawn) in this test? 0

Which outcome was entered for the compound CN(C(=O)Cc1cccc(N=C=S)c1)[C@H]1CCCC[C@@H]1N1CCCC1 in this test? 0

Which outcome was entered for the compound O=c1c2cccnc2ncn1CCCN1CCOCC1 in this test? 0

Which outcome was entered for the compound Cc1ncc([N+](=O)[O-])n1CCNC(=O)CCCCCn1ccnc1[N+](=O)[O-] in this test? 0

Which outcome was entered for the compound COc1ccc(C(=O)/C=C/c2ccc(OCC(=O)O)cc2)cc1 in this test? 0

Which outcome was entered for the compound Cc1c(-c2ccccc2)c(=O)oc2ccc(Cl)cc12 in this test? 0

Which outcome was entered for the compound O=C1/C(=C/c2ccc(O)cc2)CCc2ccccc21 in this test? 0

Which outcome was entered for the compound COC(=O)C(Cc1ccc2c(c1)OCO2)(NC(=O)c1ccccc1)P(=O)(OC)OC (stereo not drawn) in this test? 0

Which outcome was entered for the compound CCOC(=O)/C(Cl)=C(\C)Nc1nc2c(ccc3ccccc32)s1 in this test? 0

Which outcome was entered for the compound O=[N+]([O-])C(=C1c2ccccc2-c2ccccc21)[N+](=O)[O-] in this test? 0
